Values were extracted from patent US20110112308A1.

experiment: Solution stability (HPLC); type: physicochemical; conditions: 2% in 0.8% Tween 80, 1 day at RT
assayMetric: % DP (total degradation products) (% area)
Return type: number; implicit unit % area.

1) Cc1[nH]c2ccccc2c1CCNCc1ccc(/C=C/C(=O)NO)cc1.Cl [HCl] : 0.43
2) Cc1[nH]c2ccccc2c1CCNCc1ccc(/C=C/C(=O)NO)cc1.O=C(O)/C=C\C(=O)O [Maleate] : 0.66
3) CC(O)C(=O)O.Cc1[nH]c2ccccc2c1CCNCc1ccc(/C=C/C(=O)NO)cc1.O (racemic) [Monohydrate DL-lactate salt] : 0.42

Q) Suppose we examine the molecule CS(=O)(=O)O.Cc1[nH]c2ccccc2c1CCNCc1ccc(/C=C/C(=O)NO)cc1 [Mesylate] ; what % DP (total degradation products) value has been reported?
A) 0.63
